Source: patent US4794188A

Molecular target: UniProtKB P09917
Sequence (P09917 1-674): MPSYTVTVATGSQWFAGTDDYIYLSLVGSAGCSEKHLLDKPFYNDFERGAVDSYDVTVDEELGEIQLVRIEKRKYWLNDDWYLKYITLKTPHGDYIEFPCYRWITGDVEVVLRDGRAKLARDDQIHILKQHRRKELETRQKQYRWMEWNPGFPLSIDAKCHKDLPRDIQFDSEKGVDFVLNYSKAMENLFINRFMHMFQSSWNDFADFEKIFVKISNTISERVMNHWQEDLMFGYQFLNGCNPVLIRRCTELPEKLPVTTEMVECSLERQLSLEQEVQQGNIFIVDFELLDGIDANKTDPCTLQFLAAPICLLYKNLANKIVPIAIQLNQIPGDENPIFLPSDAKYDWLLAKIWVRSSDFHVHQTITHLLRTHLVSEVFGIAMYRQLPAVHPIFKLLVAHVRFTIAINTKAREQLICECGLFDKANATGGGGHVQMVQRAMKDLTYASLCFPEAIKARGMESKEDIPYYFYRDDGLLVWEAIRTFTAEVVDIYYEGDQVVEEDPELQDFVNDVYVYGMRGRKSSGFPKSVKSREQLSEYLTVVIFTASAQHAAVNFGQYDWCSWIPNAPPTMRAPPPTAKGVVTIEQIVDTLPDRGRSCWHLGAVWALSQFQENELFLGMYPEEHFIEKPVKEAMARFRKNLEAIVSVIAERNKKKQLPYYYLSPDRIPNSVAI
Readout: pIC50
Schema: pIC50 number; meaning minus log10 of the concentration expressed in molar units.

| Compound | pIC50 |
| --- | --- |
| CCCCCC(O)c1ccc(OCc2ccc3ccccc3n2)cc1 (stereo not shown) | 6.46 |
| CCCCCC(O)c1cccc(OCc2cccnc2)c1 (stereo not shown) | 5.52 |
| CC(O)(CCCCCOc1ccccc1)c1cccc(OCc2ccc3ccccc3n2)c1 (stereo not shown) | 6.10 |
| OC(CCCCCOc1ccccc1)c1cccc(OCc2ccc3ccccc3n2)c1 (stereo not shown) | 6.22 |
| CCCCC=Cc1cccc(OCc2ccc3ccccc3n2)c1 [3-(CHCHC4 H9), 2-[3-(1-Hexenyl)phenoxymethyl]quinoline] | 5.62 |

Prompt: Request: pIC50, test system UniProtKB P09917, entry CCCCCC(C)(O)c1cccc(OCc2ccc3ccccc3n2)c1 (stereo not shown)
Completion: 7.00

Prompt: // repeat for CCCCCC(O)c1cccc(OCc2cccc(C(=O)O)n2)c1 (stereo not shown) and report
Completion: 5.72

Prompt: // repeat for CCCCC(C)C(O)c1cccc(OCc2ccc3ccccc3n2)c1 (stereo not shown) and report
Completion: 6.70

Prompt: // repeat for CCCCC(C)(C)C(C)(O)c1cccc(OCc2ccc3ccccc3n2)c1 (stereo not shown) and report
Completion: 6.57

Prompt: // repeat for CCCCCC(C)(O)c1cccc(OCc2ccccn2)c1 (stereo not shown) and report
Completion: 6.52

====

Biological target: 5-LOX (Homo sapiens)
Sequence (P09917 1-674): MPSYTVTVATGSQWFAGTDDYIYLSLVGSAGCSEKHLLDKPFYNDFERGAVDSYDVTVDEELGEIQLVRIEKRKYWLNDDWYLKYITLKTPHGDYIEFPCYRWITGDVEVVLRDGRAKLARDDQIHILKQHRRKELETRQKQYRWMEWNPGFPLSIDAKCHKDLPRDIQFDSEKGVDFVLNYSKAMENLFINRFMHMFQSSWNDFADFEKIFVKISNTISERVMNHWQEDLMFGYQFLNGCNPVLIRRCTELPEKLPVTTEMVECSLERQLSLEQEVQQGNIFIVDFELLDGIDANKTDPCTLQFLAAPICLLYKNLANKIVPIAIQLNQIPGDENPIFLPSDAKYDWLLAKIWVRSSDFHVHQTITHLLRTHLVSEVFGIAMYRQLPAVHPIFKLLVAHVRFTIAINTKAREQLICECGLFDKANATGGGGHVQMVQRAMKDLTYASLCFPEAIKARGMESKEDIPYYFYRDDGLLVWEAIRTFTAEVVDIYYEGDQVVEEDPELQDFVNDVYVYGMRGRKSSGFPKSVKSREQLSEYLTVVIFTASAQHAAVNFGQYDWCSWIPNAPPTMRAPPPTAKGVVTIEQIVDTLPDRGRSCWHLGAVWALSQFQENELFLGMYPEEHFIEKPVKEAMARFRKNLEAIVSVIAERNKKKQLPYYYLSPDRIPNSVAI
# Lookup of reported IC50 keyed by entry
Provide the reading as a plain figure in nM.

Example molecules with recorded IC50:
| Molecule | Study System | Readout | Observed Value |
| --- | --- | --- | --- |
| CCCCCC(O)c1cccc(OCc2ccncc2)c1 (stereo not drawn) | 5-LOX (Homo sapiens) | IC50 | 3000 |
| CCCCCC(O)c1cccc(OCc2ccccn2)c1 (stereo not drawn) | 5-LOX (Homo sapiens) | IC50 | 500 |
| CCCCCC(O)c1ccc(Oc2ccc3ccccc3n2)cc1 (stereo not drawn) | 5-LOX (Homo sapiens) | IC50 | 350 |
| CCCCC(C)(C)C(O)c1cccc(OCc2ccc3ccccc3n2)c1 (stereo not drawn) | 5-LOX (Homo sapiens) | IC50 | 270 |
| CCCCCC(NC)c1cccc(OCc2ccccn2)c1 (stereo not drawn) | 5-LOX (Homo sapiens) | IC50 | 2200 |

Prompt: Which value of IC50 has been reported for CCCCCC(=O)c1cccc(OCc2ccc3ccccc3n2)c1 in the records?
Completion: 150

Prompt: // repeat for CC(=O)CC(O)c1cccc(OCc2ccc3ccccc3n2)c1 (stereo not drawn) and report
Completion: 180

Prompt: // repeat for OC(CCCCCOc1cccc(Cl)c1)c1cccc(OCc2ccc3ccccc3n2)c1 (stereo not drawn) and report
Completion: 600

Prompt: // repeat for CCCCCC(O)c1cccc(OCc2cccc(C#N)n2)c1 (stereo not drawn) and report
Completion: 30000
